- target.desc: Type-1 angiotensin II receptor (Homo sapiens)
- assay.name: Agonist activity at wild-type human AT1 receptor expressed in CHO cells assessed as inositol-1-monophosphate release by FRET assay
- Assay type: functional, cell-based
Active and inactive are the calls of the source. No cut-off for these calls is given here. Square brackets hold non-standard residues; d marks the D form. Peptide text beside a SMILES is read from it. Phe(4-CF3-diazirinyl) = N[C@@H](Cc1ccc(C2(C(F)(F)F)N=N2)cc1)C(=O)O; Bpa = N[C@@H](Cc1ccc(C(=O)c2ccccc2)cc1)C(=O)O; Sar = CNCC(=O)O
Answer with one of the outcomes active, inactive

- compound: "CC[C@H](C)[C@H](NC(=O)[C@H](Cc1ccc(O)cc1)NC(=O)[C@@H](NC(=O)[C@H](CCCNC(=N)N)NC(=O)[C@@H](N)Cc1ccc(C(=O)c2ccccc2)cc1)C(C)C)C(=O)N[C@@H](Cc1cnc[nH]1)C(=O)N1CCC[C@H]1C(=O)N[C@@H](Cc1ccccc1)C(=O)O"
  label.value: "active"
- compound: "CC[C@H](C)[C@H](NC(=O)[C@H](Cc1ccc(O)cc1)NC(=O)[C@@H](NC(=O)[C@H](CCCNC(=N)N)NC(=O)CNC)C(C)C)C(=O)N[C@@H](Cc1cnc[nH]1)C(=O)N1CCC[C@H]1C(=O)N[C@@H](Cc1ccc(C(=O)c2ccccc2)cc1)C(=O)O"
  label.value: "inactive"
- compound: "CC[C@H](C)[C@H](NC(=O)[C@H](Cc1ccc(O)cc1)NC(=O)[C@@H](NC(=O)[C@H](CCCNC(=N)N)NC(=O)[C@@H](N)Cc1ccc(C2(C(F)(F)F)N=N2)cc1)C(C)C)C(=O)N[C@@H](Cc1cnc[nH]1)C(=O)N1CCC[C@H]1C(=O)N[C@@H](Cc1ccccc1)C(=O)O"
  label.value: "active"
- compound: "CC[C@H](C)[C@H](NC(=O)[C@H](Cc1ccc(O)cc1)NC(=O)[C@@H](NC(=O)[C@H](Cc1ccc(C2(C(F)(F)F)N=N2)cc1)NC(=O)CNC)C(C)C)C(=O)N[C@@H](Cc1cnc[nH]1)C(=O)N1CCC[C@H]1C(=O)N[C@@H](Cc1ccccc1)C(=O)O (H-[Sar][Phe(4-CF3-diazirinyl)]VYIHPF-OH)"
  label.value: "active"

Proceed to the following item.
What did this assay record as the result for CC[C@H](C)[C@H](NC(=O)[C@H](Cc1ccc(O)cc1)NC(=O)[C@@H](NC(=O)[C@H](Cc1ccc(C(=O)c2ccccc2)cc1)NC(=O)CNC)C(C)C)C(=O)N[C@@H](Cc1cnc[nH]1)C(=O)N1CCC[C@H]1C(=O)N[C@@H](Cc1ccccc1)C(=O)O (H-[Sar][Bpa]VYIHPF-OH) ?
active

* * *

- Test system: Type-1 angiotensin II receptor (Homo sapiens), P30556 [N111G]
- Sequence (P30556 whole entry N111G): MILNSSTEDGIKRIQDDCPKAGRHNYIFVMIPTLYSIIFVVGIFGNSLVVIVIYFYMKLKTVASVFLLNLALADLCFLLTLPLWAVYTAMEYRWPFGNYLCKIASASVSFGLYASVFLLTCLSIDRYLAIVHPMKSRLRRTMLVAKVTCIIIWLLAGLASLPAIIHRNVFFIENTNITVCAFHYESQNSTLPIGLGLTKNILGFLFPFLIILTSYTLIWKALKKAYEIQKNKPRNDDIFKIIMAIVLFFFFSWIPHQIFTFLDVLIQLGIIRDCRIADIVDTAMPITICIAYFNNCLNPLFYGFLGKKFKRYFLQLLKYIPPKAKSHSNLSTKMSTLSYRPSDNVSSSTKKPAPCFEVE
- assay.name: Agonist activity at human AT1 receptor N111G constitutively active mutant expressed in CHO cells assessed as inositol-1-monophosphate release by FRET assay
- Format: functional, cell-based
Activity calls are given as the source filed them. The rule behind the calls is not given here.

- smiles.entry: "CC[C@H](C)[C@H](NC(=O)[C@H](Cc1ccc(O)cc1)NC(=O)[C@@H](NC(=O)[C@H](CCCNC(=N)N)NC(=O)[C@@H](N)Cc1ccc(C2(C(F)(F)F)N=N2)cc1)C(C)C)C(=O)N[C@@H](Cc1cnc[nH]1)C(=O)N1CCC[C@H]1C(=O)N[C@@H](Cc1ccccc1)C(=O)O"
  Activity: "Active"
- smiles.entry: "CC[C@H](C)[C@H](NC(=O)[C@H](Cc1ccc(O)cc1)NC(=O)[C@@H](NC(=O)[C@H](CCCNC(=N)N)NC(=O)[C@@H](N)Cc1ccc(C(=O)c2ccccc2)cc1)C(C)C)C(=O)N[C@@H](Cc1cnc[nH]1)C(=O)N1CCC[C@H]1C(=O)N[C@@H](Cc1ccccc1)C(=O)O"
  Activity: "Active"
